Assay: Permeability in a Caco-2 assay
Format: in vitro ADME
Details: human, Caco-2, Assay Conc. 10 μM, without verapamil
Papp A→B at 10 μM values by entry

[
  {
    "COMPOUND": "CNC(=C[N+](=O)[O-])NCCSCc1ccc(CN(C)C)o1 [Ranitidine, reference compound]",
    "Papp A→B at 10 μM (×10⁻⁶ cm/s)": 0.391
  },
  {
    "COMPOUND": "CC(=O)CC(c1ccccc1)c1c(O)c2ccccc2oc1=O (centres unmarked) [Warfarin, reference compound]",
    "Papp A→B at 10 μM (×10⁻⁶ cm/s)": 36.8
  }
]
